System: 349418-098-R-PDC complex spheroid viability;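 further: spheroids exposed to compound for seven days before viability readout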
Assay: Anticancer human tumor 349418-098-R-PDC patient-derived lung adenocarcinoma cell line growth inhibition [RAS]
Settings: second compound 1 µM; first compound 10 µM; stronger effect = lower value
viability, T/C under 20% gets label 1, anything at or over 20% gets label 0.

Find out if reported viability, T/C for CC(Nc1ccc2c(c1)OCCn1cc(N3C(=O)OCC3C(F)F)nc1-2)C(N)=O (stereo not drawn) + C#Cc1c(F)ccc2cc(O)cc(-c3ncc4c(N5CC6CCC(C5)N6)nc(OCC56CCCN5CC(F)C6)nc4c3F)c12 is less than 20%
label 1

Find out if reported viability, T/C for Cc1nc(N2CCC3(CC2)COC(C)C3N)c(CO)nc1Sc1ccnc(N)c1Cl (stereo not drawn) + C=CC(=O)N1CCN(c2nc(OCC3CCCN3C)nc3c(F)c(-c4nc(N)cc(C)c4C(F)(F)F)c(Cl)cc23)C(C)C1 is less than 20%
label 0

Find out if reported viability, T/C for CCC(CC)c1cc(NC2CCC(N)C2)n2nccc2n1 (stereo not drawn) + C=CC(=O)N1CCN(c2nc(OCC3CCCN3C)nc3c(F)c(-c4nc(N)cc(C)c4C(F)(F)F)c(Cl)cc23)C(C)C1 is less than 20%
label 1

Find out if reported viability, T/C for CC(=O)OC12COC1CC(O)C1(C)C(=O)C(O)C3=C(C)C(OC(=O)C(O)C(NC(=O)OC(C)(C)C)c4ccccc4)CC(O)(C(OC(=O)c4ccccc4)C21)C3(C)C (stereo not drawn) + C#Cc1c(F)ccc2cc(O)cc(-c3ncc4c(N5CC6CCC(C5)N6)nc(OCC56CCCN5CC(F)C6)nc4c3F)c12 is less than 20%
label 0

Find out if reported viability, T/C for CC(Nc1ccc2c(c1)OCCn1cc(N3C(=O)OCC3C(F)F)nc1-2)C(N)=O (stereo not drawn) + C=CC(=O)N1CCN(c2nc(OCC3CCCN3C)nc3c(F)c(-c4nc(N)cc(C)c4C(F)(F)F)c(Cl)cc23)C(C)C1 is less than 20%
label 1

Find out if reported viability, T/C for CC(=O)OC12COC1CC(O)C1(C)C(=O)C(O)C3=C(C)C(OC(=O)C(O)C(NC(=O)OC(C)(C)C)c4ccccc4)CC(O)(C(OC(=O)c4ccccc4)C21)C3(C)C (stereo not drawn) + C=CC(=O)N1CCN(c2nc(OCC3CCCN3C)nc3c(F)c(-c4nc(N)cc(C)c4C(F)(F)F)c(Cl)cc23)C(C)C1 is less than 20%
label 0

Find out if reported viability, T/C for Cc1nc(N2CCC3(CC2)COC(C)C3N)c(CO)nc1Sc1ccnc(N)c1Cl (stereo not drawn) + C#Cc1c(F)ccc2cc(O)cc(-c3ncc4c(N5CC6CCC(C5)N6)nc(OCC56CCCN5CC(F)C6)nc4c3F)c12 is less than 20%
label 0

Find out if reported viability, T/C for NC1c2ccccc2OC12CCN(c1cnc3c(N4CCCc5ncccc54)n[nH]c3n1)CC2 (stereo not drawn) + C#Cc1c(F)ccc2cc(O)cc(-c3ncc4c(N5CC6CCC(C5)N6)nc(OCC56CCCN5CC(F)C6)nc4c3F)c12 is less than 20%
label 0
